assay: Compound was tested for Inhibition of 9 (1 nM) binding to Opioid receptor delta 1 from bovine striatal Membranes
readout_label: pIC50
Scale: negative log10 of molar concentration, which is what pIC50 denotes.

In: What does the data say about its pIC50? Entry: C=C(Cl)C(=O)N[C@@H]1CCC2C3Cc4ccc(O)c5c4C2(CCN3CC2CC2)[C@H]1O5 (some centres undefined)
Out: 9.28

More entries:
In: What does the data say about its pIC50? Entry: C=C(Cl)C(=O)N[C@@]12CCC(=O)[C@@H]3Oc4c(O)ccc5c4C31CCN(CC1CC1)C2C5 (some centres undefined)
Out: 6.75

In: What does the data say about its pIC50? Entry: C=C(Cl)C(=O)N[C@@H]1CCC2C3Cc4ccc(O)c5c4C2(CCN3C)[C@H]1O5 (some centres undefined)
Out: 7.35

In: What does the data say about its pIC50? Entry: C=C(Cl)C(=O)N[C@@]12CCC(=O)[C@@H]3Oc4c(O)ccc5c4C31CCN(C)C2C5 (some centres undefined)
Out: 6.75
